# area under the dose-response curve listing for each entry below
System: SB.msgc-1
assay_name: area under the dose-response curve of % viability (trapezoidal, 11 doses) (% viability x log10 concentration); higher = less cytotoxic
measurement_conditions: SB.msgc-1 (sporadic gastric cancer)
Please give the numeric answer without any surrounding text.

| molecule | area under the dose-response curve |
| --- | --- |
| Cc1ccc(C(=O)Nc2cccc(C(F)(F)F)c2)cc1-c1ccc2nc(NCCN3CCOCC3)ncc2c1 [AMG-47a] (top concentration 46.0829 µM) | 512 |

Lab note: molecule CC1=CC=CC=C1N2\C(=N/C3=C(C(=CC=C3)C)C2=O)C[N]4C=NC5=C4N=CN=C5N (top concentration 46.0829 µM) tested on SB.msgc-1; recorded area under the dose-response curve was 426

For the molecule Cc1cc(Nc2cc(NC(=O)c3c(Cl)cccc3Cl)ccn2)nc(N)n1 [RO495] (top concentration 46.0829 µM) , the measured area under the dose-response curve on SB.msgc-1 was 374

# value of area under the dose-response curve, SB.msgc-1, item c1cc(-c2sc(-c3ccncc3)c(-c3ccncc3)c2-c2ccncc2)ccn1 (top concentration 46.0829 µM) = 514

I looked up OCC(O)C(O)C(O)CO (stereo not drawn) [Ribitol] (top concentration 46.0829 µM) and its area under the dose-response curve for SB.msgc-1 was 537

CC(S)C(=O)NCC(=O)O (stereo not drawn) [Tiopronin] (top concentration 46.0829 µM) on SB.msgc-1 gives area under the dose-response curve = 557

* * *

Quick list: viability per entry.
Tested on: SB.mhdgc-1
assay_name: viability at highest tested concentration (MAXR) relative to DMSO; higher = less cytotoxic
measurement_conditions: SB.mhdgc-1 (hereditary c.1380delA CDH1 gastric cancer)
Report the figure in % without appending any unit label.

# count of solved cases: 2
| compound | numeric_value |
| --- | --- |
| CC[S+](=O)([O-])N1CC(CC#N)(n2cc(-c3ncnc4[nH]ccc34)cn2)C1 [Baricitinib] (top concentration 46.0829 µM) | 41.1 |
| Cc1nnc(N[S+](=O)([O-])c2ccc(N)cc2)s1 [Sulfamethizole] (top concentration 46.0829 µM) | 38.9 |

Here is the next item to consider.
Form field, viability with SB.mhdgc-1, item COCCOC(=O)C/1=C(C)/NC/2=C(C1C3=CC=CC(=C3)O)/C(=O)CC(C2)C4=C(OC)C=CC=C4 (stereo not drawn) [HPI-1] (top concentration 46.0829 µM) : 40.9

* * *

Test system: SB.mhdgc-1
assay_name: viability at highest tested concentration (MAXR) relative to DMSO; higher = less cytotoxic
measurement_conditions: SB.mhdgc-1 (hereditary c.1380delA CDH1 gastric cancer)
quantity_name: viability

Some solved entries appear below for comparison.
| compound | viability |
| --- | --- |
| COc1ccc(CC2NCCc3cc(OC)c(OC)cc32)cc1OC (stereo unspecified) [Tetrahydropapaverine] (top concentration 46.0829 µM) | 51.3% |
| NC(=O)c1ccc(I)c([N+](=O)[O-])c1 [Iniparib] (top concentration 46.0829 µM) | 36.6% |
| Nc1ncnc2c1ncn2[C@@H]1O[C@H](CO)C[C@H]1O [Cordycepin] (top concentration 46.0829 µM) | 108% |
| CNC(=O)c1cccc(-c2ccc3c(N4CCOC[C@@H]4C)nc(N4CCOC[C@@H]4C)nc3n2)c1 [AZD-2014] (top concentration 46.0829 µM) | 49.5% |
| OC(=O)C1=CC=C(NC2=NC3=C(C\N=C(/C4=CC(=CC=C34)Cl)C5=C(F)C=CC=C5F)C=N2)C=C1 [MLN-8054] (top concentration 46.0829 µM) | 11.6% |
| CC1(C)CC\C2=C(/O1)C3=C(C=CC=C3)C(=O)C2=O [beta-Lapachone] (top concentration 46.0829 µM) | 2.91% |
| CNC(=O)c1ccc(Nc2cc(Nc3ccccc3[S+](=O)([O-])C(C)C)c3cc[nH]c3n2)nc1 (top concentration 46.0829 µM) | 14.3% |
| CC1=NN(c2ccc(C)c(C)c2)C(=O)/C1=N/Nc1cccc(-c2cccc(C(=O)O)c2)c1O [Eltrombopag olamine] (top concentration 46.0829 µM) | 71.2% |

The reported value for Cn1cc(-c2ccc3nnc(Sc4ccc5ncccc5c4)n3n2)cn1 [SGX-523] (top concentration 46.0829 µM) in terms of viability is 32.5%

Record Cc1cccc(-c2[nH]c(C(C)(C)C)nc2-c2ccc3nccnc3c2)n1 (top concentration 46.0829 µM) , field viability: 23.1%

Form field viability, entry N[C@@H](Cc1c[nH]c2ccc(O)cc12)C(=O)O [5-Hydroxytryptophan] (top concentration 46.0829 µM) : 83.1%

* * *

System: SB.mhdgc-1
assay_name: AC50 for growth inhibition (viability) (log10 M); higher = less potent
measurement_conditions: SB.mhdgc-1 (hereditary c.1380delA CDH1 gastric cancer)
Where a name gives a salt, the structure may show the parent alone.
quantity_name: AC50 for growth inhibition (log10 M)
Respond numerically, and do not add a unit to the figure.

// below: answered compounds
| compound | tested_on | AC50 for growth inhibition (log10 M) |
| --- | --- | --- |
| C#C[C@]1(O)CC[C@H]2[C@@H]3CCc4cc(O)ccc4[C@H]3CC[C@@]21C | SB.mhdgc-1 | -4.78 |
| O=C(O)c1ccc2cc(-c3ccc(O)c(C45CC6CC(CC(C6)C4)C5)c3)ccc2c1 | SB.mhdgc-1 | -6.48 |
| Cn1cnc2c1c(=O)[nH]c(=O)n2C | SB.mhdgc-1 | -4.63 |
| CC12CC3CC(C)(C1)CC(N)(C3)C2 [Memantine hydrochloride] | SB.mhdgc-1 | -4.73 |
| CC1(C)C(=O)N(CCN2CCC(C(=O)c3ccc(F)cc3)CC2)c2ccccc21 | SB.mhdgc-1 | -4.78 |

// AC50 for growth inhibition (log10 M) value for ClC1=CC=C(C=C1)C(C#N)C2=C(Cl)C=C(C=C2Cl)N3\N=C/C(=O)NC3=O (configuration not stated) : -4.78

For this compound ( CN[C@H]1CCC2=CC(=C(OC)C(=C2C/3=C/C=C(OC)\C(=O)/C=C13)OC)OC ), measured AC50 for growth inhibition (log10 M) is -8.13

The compound identified as CC(C)C[C@H](NC(=O)[C@H](CCc1ccccc1)NC(=O)CN1CCOCC1)C(=O)N[C@@H](Cc1ccccc1)C(=O)N[C@@H](CC(C)C)C(=O)[C@@]1(C)CO1 registered its AC50 for growth inhibition (log10 M) at -7.93

For reference, reported AC50 for growth inhibition (log10 M) for O=C(O)Cc1cccc(OCCCN(Cc2cccc(C(F)(F)F)c2Cl)CC(c2ccccc2)c2ccccc2)c1 stands at -4.78

Looking up CCC(c1ccc(O)cc1)C(CC)c1ccc(O)cc1 (configuration not stated) , I see its AC50 for growth inhibition (log10 M) listed as -5.88

Data point: O=C(NC1CCNCC1)c1n[nH]cc1NC(=O)c1c(Cl)cccc1Cl ; AC50 for growth inhibition (log10 M) = -7.18

Short answer for CC1(C)[C@@H](O)CC[C@@]2(C)[C@H]1CC[C@]3(C)[C@@H]2C(=O)\C=C/4[C@@H]5C[C@](C)(CC[C@]5(C)CC[C@@]34C)C(O)=O : AC50 for growth inhibition (log10 M) was -5.08

Lab book: AC50 for growth inhibition (log10 M) of CN(C)c1ccc2cc(C(=O)N[C@@H](CCCNC(=N)CCl)C(=O)NCc3ccccc3)ccc2c1 noted as -4.78

Form field AC50 for growth inhibition (log10 M), entry CC[C@H](NC1=C2N=C[NH]C2=NC=N1)C/3=N/C4=C(C(=CC=C4)F)C(=O)N3C5=CC=CC=C5 : -5.18

// COc1cc(O)c2c(c1)C1OC1C[C@H](O)[C@H](O)C(=O)/C=C\C[C@H](C)OC2=O (some centres not stated) : AC50 for growth inhibition (log10 M) value = -5.03

The recorded AC50 for growth inhibition (log10 M) for CCCCN(CCCC)CCC(O)c1cc2c(Cl)cc(Cl)cc2c2cc(C(F)(F)F)ccc12 (configuration not stated) is -4.68

C/C(O)=C(\C#N)C(=O)Nc1ccc(C(F)(F)F)cc1 [Teriflunomide] has a reported AC50 for growth inhibition (log10 M) of -4.63

The compound listed as C[C@H]1[C@@H](C(=O)C[C@H]2O[C@@H]3O[C@]4(C)CC[C@H]5[C@H](C)CC[C@@H]([C@H]2C)[C@@]35OO4)O[C@@H]2O[C@]3(C)CC[C@H]4[C@H](C)CC[C@@H]1[C@@]24OO3 shows AC50 for growth inhibition (log10 M) equal to -6.38

* * *

System: SB.msgc-1
assay_name: viability at highest tested concentration (MAXR) relative to DMSO; higher = less cytotoxic
measurement_conditions: SB.msgc-1 (sporadic gastric cancer)
Listing of recorded viability by entry.
Kindly answer with a numeric value in %, unit omitted.

| molecule | viability, % |
| --- | --- |
| NC(=O)c1cccnc1 [Niacinamide] (top concentration 46.0829 µM) | 87.7 |
| Cc1ccccc1C(C(=O)NC1CCCCC1)N(C(=O)Cn1ccnc1C)c1cccc(F)c1 (centres undefined) [AGI-5198] (top concentration 46.0829 µM) | 83.5 |
| Cc1coc2c1C(=O)C(=O)c1c-2ccc2c1CCCC2(C)C [Tanshinone IIA] (top concentration 46.0829 µM) | 20.8 |

Observed viability on SB.msgc-1, entry O=C(OC)[C@]12CC[C@@]3(C)[C@]4(C)CC[C@H]5[C@@](C)(C)C(=O)C(=C[C@]5(C)C4=CC(=O)[C@@H]3[C@@H]2C[C@](C)(C)CC1)C#N [Bardoxolone methyl] (top concentration 46.0829 µM) , equals 1.51
